Listed next: entries and their corresponding inhibition.
TARGET: Nuclear receptor coactivator 2 (Homo sapiens) (UniProt Q15596)
Sequence (Q15596 whole entry, looked up): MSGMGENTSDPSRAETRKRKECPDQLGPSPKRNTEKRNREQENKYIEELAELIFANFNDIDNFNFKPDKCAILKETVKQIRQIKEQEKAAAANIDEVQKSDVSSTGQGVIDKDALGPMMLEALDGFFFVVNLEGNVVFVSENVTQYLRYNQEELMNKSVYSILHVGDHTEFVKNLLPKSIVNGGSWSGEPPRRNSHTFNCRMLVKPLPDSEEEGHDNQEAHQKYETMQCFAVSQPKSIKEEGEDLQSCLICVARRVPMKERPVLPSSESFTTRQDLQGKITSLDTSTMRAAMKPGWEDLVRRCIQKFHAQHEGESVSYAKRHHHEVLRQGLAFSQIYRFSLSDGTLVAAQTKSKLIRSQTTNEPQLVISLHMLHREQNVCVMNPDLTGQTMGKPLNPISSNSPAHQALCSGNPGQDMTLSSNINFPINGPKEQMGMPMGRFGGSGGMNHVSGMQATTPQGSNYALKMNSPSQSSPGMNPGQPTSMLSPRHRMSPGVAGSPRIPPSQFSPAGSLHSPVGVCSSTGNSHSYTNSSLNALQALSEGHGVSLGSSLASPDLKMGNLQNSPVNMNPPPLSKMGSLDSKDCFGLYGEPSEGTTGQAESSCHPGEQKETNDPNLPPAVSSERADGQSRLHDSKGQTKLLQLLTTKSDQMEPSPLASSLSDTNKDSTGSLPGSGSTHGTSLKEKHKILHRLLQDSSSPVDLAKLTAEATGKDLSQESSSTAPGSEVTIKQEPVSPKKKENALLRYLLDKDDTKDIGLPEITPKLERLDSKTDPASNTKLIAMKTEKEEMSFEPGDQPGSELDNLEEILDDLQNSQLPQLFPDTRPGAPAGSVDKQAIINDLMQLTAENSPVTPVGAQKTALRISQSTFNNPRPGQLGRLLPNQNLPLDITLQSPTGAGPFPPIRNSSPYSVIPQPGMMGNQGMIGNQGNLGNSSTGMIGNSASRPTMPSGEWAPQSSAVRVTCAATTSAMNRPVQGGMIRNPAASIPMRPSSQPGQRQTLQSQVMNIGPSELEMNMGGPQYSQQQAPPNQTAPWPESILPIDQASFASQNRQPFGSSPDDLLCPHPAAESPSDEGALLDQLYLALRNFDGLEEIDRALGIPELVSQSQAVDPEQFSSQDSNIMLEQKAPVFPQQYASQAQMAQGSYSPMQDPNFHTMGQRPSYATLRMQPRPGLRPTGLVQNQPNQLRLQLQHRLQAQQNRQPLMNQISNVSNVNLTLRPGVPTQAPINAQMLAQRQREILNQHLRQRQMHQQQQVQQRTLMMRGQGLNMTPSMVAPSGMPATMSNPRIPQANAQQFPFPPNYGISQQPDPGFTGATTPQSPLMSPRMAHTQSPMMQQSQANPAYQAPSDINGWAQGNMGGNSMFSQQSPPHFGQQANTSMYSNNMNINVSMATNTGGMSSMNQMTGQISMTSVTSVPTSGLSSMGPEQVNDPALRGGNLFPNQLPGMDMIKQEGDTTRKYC
TEST PROTOCOL: SRC2 coactivator transcriptional activity inhibitors, confirmation, cell-based, luminescence, HEK293, triplicate (AID 652008);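 note: 0% = DMSO-treated cells and 100% = Gossypol at 36 µM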
CONDITION DESCRIPTION: HEK293 GAL4-SRC2 luciferase reporter, at 8.9 µM, stronger effect = higher value
State the answer as a number, implicitly in %.

INPUT: Request the reported inhibition associated with "COc1ccc(-n2c(C)cc(C(=O)CSc3nnc(-c4cccs4)o3)c2C)cc1"
OUTPUT: 33.9

INPUT: I am curious: what inhibition value has been reported for COc1cccc2c1C(=O)c1c(O)c3c(c(O)c1C2=O)CC(O)(C(=O)CO)CC3OC1CC(N(C)C)C(O)C(C)O1 (centres undefined) ?
OUTPUT: 57.6

INPUT: Report inhibition for "Cc1cc(/C=N/Nc2ncnc(N)c2[N+](=O)[O-])c(C)n1-c1ccccc1" please.
OUTPUT: 61.2

INPUT: Report inhibition for "C#CCN(C[C@@H]1[C@@H](OC(=O)Nc2cccs2)[C@@H](OC(=O)Nc2cccs2)Cn2c(=O)ccc(=O)n21)S(=O)(=O)c1ccc(C)cc1" please.
OUTPUT: 88.2

The reported numbers originate from PubChem BioAssay.
